test: The drug is tested on Z-017 corresponding to mouse gut metagenome with ENA study accession number: PRJEB37062 and ENA sample accession number: ERS12561816 for biotransformation under anaerobic condition. The drug concentrations were measured over 9 timepoints collected between 0 and 24 hours of incubation by liquid-chromatography-coupled mass spectrometry (LC–MS); settings: 2 µM; also: call rule not given here
Measured Parameter: Bacterial Biotransformation

| Compound | Measured Parameter | Readout Value |
| --- | --- | --- |
| COc1ccccc1OCC(O)CN1CCN(CC(=O)Nc2c(C)cccc2C)CC1 (configuration not stated) | Bacterial Biotransformation | Compound NOT metabolized |
| CN1CC(=O)N2[C@H](c3ccc4c(c3)OCO4)c3[nH]c4ccccc4c3C[C@@H]2C1=O | Bacterial Biotransformation | Compound NOT metabolized |
| NS(=O)(=O)c1cc2c(cc1Cl)N=C(CSCc1ccccc1)NS2(=O)=O [BENZTHIAZIDE] | Bacterial Biotransformation | Compound NOT metabolized |
| CC(Oc1c(Cl)cccc1Cl)C1=NCCN1 (configuration not stated) | Bacterial Biotransformation | Compound NOT metabolized |
| CCN(CC)C(=O)/C(C#N)=C/c1cc(O)c(O)c([N+](=O)[O-])c1 | Bacterial Biotransformation | Compound metabolized |
| CC(CN1c2ccccc2Sc2ccccc21)N(C)C (configuration not stated) | Bacterial Biotransformation | Compound NOT metabolized |
| CC(C)N(CCC(C(N)=O)(c1ccccc1)c1ccccn1)C(C)C.O=P(O)(O)O (configuration not stated) [DISOPYRAMIDE PHOSPHATE] | Bacterial Biotransformation | Compound NOT metabolized |
| O=C(O)CCc1nc(-c2ccccc2)c(-c2ccccc2)o1 | Bacterial Biotransformation | Compound NOT metabolized |
| CCOC(=O)[C@H](CCc1ccccc1)N[C@@H](C)C(=O)N1[C@H](C(=O)O)C[C@@H]2CCC[C@@H]21 | Bacterial Biotransformation | Compound NOT metabolized |
| O=C1[C@H](CC[C@H](O)c2ccc(F)cc2)[C@@H](c2ccc(O)cc2)N1c1ccc(F)cc1 | Bacterial Biotransformation | Compound NOT metabolized |
| CC(C)c1c(C(=O)Nc2ccccc2)c(-c2ccccc2)c(-c2ccc(F)cc2)n1CC[C@@H](O)C[C@@H](O)CC(=O)O | Bacterial Biotransformation | Compound NOT metabolized |
| CC(C)(Oc1ccc(CCNC(=O)c2ccc(Cl)cc2)cc1)C(=O)O [BEZAFIBRATE] | Bacterial Biotransformation | Compound NOT metabolized |
| CS(=O)(=O)O.OC(CCN1CCCCC1)(c1ccccc1)c1ccccc1 [PRIDINOL METHANESULFONATE] | Bacterial Biotransformation | Compound NOT metabolized |
| CN1CCN(C(=O)O[C@H]2c3nccnc3C(=O)N2c2ccc(Cl)cn2)CC1 | Bacterial Biotransformation | Compound NOT metabolized |
| CCCC1O[C@@H]2C[C@H]3[C@@H]4CCC5=CC(=O)C=C[C@]5(C)[C@H]4[C@@H](O)C[C@]3(C)[C@]2(C(=O)CO)O1 (some centres not stated) [BUDESONIDE] | Bacterial Biotransformation | Compound metabolized |
| O=c1n(CCCN2CCN(c3cccc(Cl)c3)CC2)nc2ccccn12 | Bacterial Biotransformation | Compound NOT metabolized |
| CO[C@]12C[C@@H](COC(=O)c3cncc(Br)c3)CN(C)[C@@H]1Cc1cn(C)c3cccc2c13 | Bacterial Biotransformation | Compound NOT metabolized |
